Origin of measurements: ChEMBL document CHEMBL1153698

target of assay: Fatty-acid amide hydrolase 1 (Rattus norvegicus, UniProt P97612)
Sequence (P97612 whole entry): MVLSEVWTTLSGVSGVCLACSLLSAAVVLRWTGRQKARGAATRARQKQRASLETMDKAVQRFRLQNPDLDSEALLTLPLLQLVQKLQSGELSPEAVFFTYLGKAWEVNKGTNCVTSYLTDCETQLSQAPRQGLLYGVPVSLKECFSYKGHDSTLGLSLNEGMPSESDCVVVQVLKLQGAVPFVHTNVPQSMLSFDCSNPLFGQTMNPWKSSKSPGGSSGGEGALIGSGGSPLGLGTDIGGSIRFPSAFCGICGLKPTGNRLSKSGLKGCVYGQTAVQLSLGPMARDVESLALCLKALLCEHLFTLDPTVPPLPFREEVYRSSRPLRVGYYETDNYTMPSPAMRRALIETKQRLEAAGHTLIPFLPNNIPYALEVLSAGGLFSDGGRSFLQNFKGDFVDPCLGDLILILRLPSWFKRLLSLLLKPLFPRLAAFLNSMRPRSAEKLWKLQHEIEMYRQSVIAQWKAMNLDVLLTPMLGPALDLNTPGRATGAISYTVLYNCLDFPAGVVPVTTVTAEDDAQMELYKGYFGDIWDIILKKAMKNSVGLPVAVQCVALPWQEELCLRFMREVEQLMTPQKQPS
protocol details: Inhibition of FAAH-mediated hydrolysis of [14C]AEA in rat brain membrane
quantity name: IC50 (µM)
Report as a plain number; the unit µM is understood.

Worked cases, answers included:
* O=C(Oc1ccc(Cl)cc1)N1CCN(Cc2ccccn2)CC1 | 4.1
* O=C(Oc1ccc(Cl)cc1)N1CCN(c2ncccc2Cl)CC1 | 6.44
* O=C(Oc1cccc(C(F)(F)F)c1)N1CCN(c2ncccc2Cl)CC1 | 6.56
* O=C(Oc1ccc(Cl)cc1)N1CCN(c2ncccc2C(F)(F)F)CC1 | 2.19

The measured IC50 associated with O=C(Oc1cccc(Cl)c1)N1CCN(c2ncccc2Cl)CC1 reads 0.91

The measured IC50 associated with O=C(Oc1ccc(C(F)(F)F)cc1)N1CCN(Cc2ccccn2)CC1 reads 2.9

The measured IC50 associated with CC(C)(C)c1cccc(OC(=O)N2CCN(c3ncccc3Cl)CC2)c1 reads 1.27

The measured IC50 associated with O=C(Oc1ccc(C(F)(F)F)cc1)N1CCN(Cc2ccc3ccccc3n2)CC1 reads 9.3

The measured IC50 associated with O=C(Oc1ccc(Cl)cc1)N1CCN(Cc2ccc3ccccc3n2)CC1 reads 5.9
